tested on: Guinea pigs sensitized to ovalbumin (anaphylactic shock); experiment: Anaphylaxis in guinea pigs: protection against death after ovalbumin challenge (survival); assay type: in vivo, guinea pig; details: Cavia porcellus; Table I-a; estimated ED50, oral; protection against death after i.v. 0.6 mg ovalbumin; read-out: Anaphylaxis in guinea pigs oral effective dose in mg/kg: Survival
Label key: Satisfied means ED50 under 0.3 mg/kg; Not satisfied means ED50 of 0.3 mg/kg or more.

Field: below-cutoff. Rule: recorded ED50 strictly less than 0.3 mg/kg. Subject: O=c1[nH]c2ccccc2n1CCCN1CCN(C(c2ccccc2)c2ccc(Cl)cc2)CC1 (centres unmarked)
Not satisfied

Shift focus to the following entry.
In the record for Cc1ccc2[nH]c(=O)n(CCCN3CCN(C(c4ccccc4)c4ccccc4)CC3)c2c1 , is ED50 less than 0.3 mg/kg?
Satisfied

* * *

Form field: IC50 (one value per entry).
system: Guinea-pig ileum strips, histamine-induced contraction; assay: Anti-histamine activity in "vitro": histamine-induced spasms of guinea-pig ileum strips; assay type: cell-based; conditions: Cavia porcellus, 5 min; Table I-a; histamine 0.5 mg/liter, 5 minutes incubation; concentration giving significant inhibition (50%) of the contraction; read-out: Histamine in "vitro" (ileum) effective conc.
Number only, in mg/L; omit the unit.

Indicate the recorded IC50 value for this compound: O=c1[nH]c2ccccc2n1CCCN1CCN(C(c2ccc(F)cc2)c2ccc(F)cc2)CC1
0.01

***
Identify IC50 associated with the compound O=c1[nH]c2ccccc2n1CCCN1CCN(C(c2ccccc2)c2cccc(Cl)c2)CC1 (stereo not drawn)
0.01

Report IC50 for CNC(=O)n1c(=O)n(CCCN2CCN(C(c3ccccc3)c3ccccc3)CC2)c2ccccc21
0.02

* * *

system: histamine paw oedema in guinea pigs; assay: Histamine paw oedema in guinea pigs; type: in vivo, guinea pig; conditions: Cavia porcellus; Table I-d; oral dose giving paw reaction below 10 units 10 minutes after 50 μg histamine s.p., 2 hours after dosing; read-out: Anaphylaxis in guinea pigs oral effective dose in mg/kg: Histamine oedema
Parameter minimal effective dose: see the listing below.
The answer is to be given in mg/kg; state only the numeric part.

Please give the documented minimal effective dose of O=c1[nH]c2ccccc2n1CCN1CCC(OC(c2ccc(F)cc2)c2ccc(F)cc2)CC1
0.31

Give recorded minimal effective dose. O=c1[nH]c2ccccc2n1CCCN1CCC(OC(c2ccccc2)c2ccccc2)CC1
1.25

Note down minimal effective dose recorded for Cl.O=c1[nH]c2ccccc2n1CCN1CCC(OC(c2ccccc2)c2ccccc2)CC1
0.16

Next:
Hello, please tell me recorded minimal effective dose for this one: O=c1[nH]c2ccccc2n1CCCCN1CCC(OC(c2ccccc2)c2ccccc2)CC1
0.31

State, in one line, measured minimal effective dose of c1ccc(C(OC2CCN(CCCn3cnc4ccccc43)CC2)c2ccccc2)cc1
0.16

Retrieve minimal effective dose measured for O=c1[nH]c2ccccc2n1CCCN1CCC(OC(c2ccc(F)cc2)c2ccc(F)cc2)CC1 and print it.
0.63

* * *

system: Guinea-pig ileum strips, histamine-induced contraction; assay: Anti-histamine activity in "vitro": histamine-induced spasms of guinea-pig ileum strips; assay type: cell-based; conditions: Cavia porcellus, 5 min; Table I-a; histamine 0.5 mg/liter, 5 minutes incubation; concentration giving significant inhibition (50%) of the contraction; read-out: Histamine in "vitro" (ileum) effective conc.
metric-name: log10 of IC50 (log10 of the value in µg/mL)
Could you please treat all values as log10 of IC50 in µg/mL?

Use the examples below as a reference point.
Tell me its log10 of IC50 on Guinea-pig ileum strips, histamine-induced contraction: Cc1ccc2[nH]c(=O)n(CCCN3CCN(C(c4ccccc4)c4ccccc4)CC3)c2c1
-2.00

Give log10 of IC50 for O=c1[nH]c2ccccc2n1CCCN1CCN(C(c2ccccc2)c2ccccc2Cl)CC1 (centres unmarked) tested on Guinea-pig ileum strips, histamine-induced contraction.
-1.10

State, for Guinea-pig ileum strips, histamine-induced contraction, measured log10 of IC50 of the compound listed here: CC(CN1CCN(C(c2ccc(F)cc2)c2ccc(F)cc2)CC1)Cn1c(=O)[nH]c2ccccc21 (centres unmarked)
-1.70

Report log10 of IC50 from Guinea-pig ileum strips, histamine-induced contraction testing of O=c1[nH]c2ccccc2n1CCCN1CCN(C(c2ccccc2)c2ccc(Cl)cc2)CC1 (centres unmarked)
-2.00

Specify log10 of IC50 for CCOC(=O)CCn1c(=O)n(CCCN2CCN(C(c3ccccc3)c3ccccc3)CC2)c2ccccc21 [dihydrate] , system Guinea-pig ileum strips, histamine-induced contraction.
-2.30

Further cases:
Enter recorded log10 of IC50 with Guinea-pig ileum strips, histamine-induced contraction for O=c1[nH]c2ccccc2n1CCCN1CCN(C(c2ccc(Cl)cc2)c2ccc(Cl)cc2)CC1 here.
-0.80

Print Guinea-pig ileum strips, histamine-induced contraction log10 of IC50 for O=c1[nH]c2cc(Cl)ccc2n1CCN1CCN(C(c2ccccc2)c2ccccc2)CC1 .
-2.00

# lookup: Guinea-pig ileum strips, histamine-induced contraction log10 of IC50, key = C=C(C)n1c(=O)n(CCCN2CCN(C(c3ccccc3)c3ccccc3)CC2)c2ccccc21
-2.00

For Guinea-pig ileum strips, histamine-induced contraction, give log10 of IC50 of the listed compound: O=c1[nH]c2ccc(Cl)cc2n1CCCN1CCN(C(c2ccccc2)c2ccccc2)CC1
-1.40

Give log10 of IC50 for O=C(O)Cn1c(=O)n(CCCN2CCN(C(c3ccccc3)c3ccccc3)CC2)c2ccccc21 [hemihydrate] tested on Guinea-pig ileum strips, histamine-induced contraction.
-1.10

# return log10 of IC50 of O=c1[nH]c2ccccc2n1CCCCN1CCN(C(c2ccc(F)cc2)c2ccc(F)cc2)CC1 (system: Guinea-pig ileum strips, histamine-induced contraction)
-2.00

Provide log10 of IC50, tested on Guinea-pig ileum strips, histamine-induced contraction, for Cl.Cl.O=c1n(CCCN2CCN(C(c3ccccc3)c3ccccc3)CC2)c2ccccc2n1Cc1ccccc1 .
-0.80

Where do the numbers come from? From patent US4250176A.
